EC50 overview
measurement_target: Protein arginine N-methyltransferase 5 (Homo sapiens, UniProt O14744)
Sequence (O14744 whole entry): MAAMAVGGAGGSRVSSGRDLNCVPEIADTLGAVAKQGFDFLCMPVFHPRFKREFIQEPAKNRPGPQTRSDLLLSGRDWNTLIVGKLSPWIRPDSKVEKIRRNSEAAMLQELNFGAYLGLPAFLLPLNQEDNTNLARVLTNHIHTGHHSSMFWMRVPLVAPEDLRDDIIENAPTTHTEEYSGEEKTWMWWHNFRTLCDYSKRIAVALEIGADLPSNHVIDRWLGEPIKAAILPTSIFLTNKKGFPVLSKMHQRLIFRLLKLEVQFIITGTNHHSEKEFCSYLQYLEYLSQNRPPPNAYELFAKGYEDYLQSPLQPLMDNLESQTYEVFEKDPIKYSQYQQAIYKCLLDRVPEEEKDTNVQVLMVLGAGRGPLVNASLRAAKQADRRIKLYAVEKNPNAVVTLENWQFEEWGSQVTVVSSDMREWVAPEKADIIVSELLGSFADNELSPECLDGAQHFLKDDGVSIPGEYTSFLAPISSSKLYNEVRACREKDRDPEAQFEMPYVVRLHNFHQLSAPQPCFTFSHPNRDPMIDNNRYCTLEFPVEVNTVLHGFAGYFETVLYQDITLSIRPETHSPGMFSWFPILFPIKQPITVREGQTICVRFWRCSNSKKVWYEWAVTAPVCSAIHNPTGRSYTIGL
experiment_summary: Inhibition of PRMT5 in human Z138 cells assessed as decrease in di-methyl arginine levels after 96 hrs by Western blot method
Format: cell-based

Consider the following illustrative entries.
>>> experimental_value("O=C(COc1ccccc1-c1ncc[nH]1)NCC(O)CN1CCc2ccccc2C1 (stereo not given)")
"1 to 10 µM"
>>> experimental_value("O=C(COc1ccccc1C1CCNCC1)NCC(O)CN1CCc2ccccc2C1 (stereo not given)")
"0.101 to 1 µM"
>>> experimental_value("Cn1cc2ccc(-c3cc(NCC(O)CN4CCc5ccccc5C4)ncn3)cc2n1 (stereo not given)")
"0.101 to 1 µM"
>>> experimental_value("Cn1cnc2c1CN(c1cccc(OCC(O)CN3CCc4ccccc4C3)c1)CC2 (stereo not given)")
"1 to 10 µM"
>>> experimental_value("COc1ccccc1OCC(=O)NCC(O)CN1CCc2ccccc2C1 (stereo not given)")
"0.101 to 1 µM"
>>> experimental_value("CS(=O)(=O)Nc1cccc(OCC(=O)NCC(O)CN2CCc3ccccc3C2)c1 (stereo not given)")
"0.101 to 1 µM"
>>> experimental_value("O=C(Cn1ccc2cnc(-c3ccnc(NCC(O)CN4CCc5ccccc5C4)c3)nc21)N1CCCCC1 (stereo not given)")
"< 0.1 µM"
>>> experimental_value("O=C(Nc1cccc(OCC(O)CN2CCc3ccccc3C2)c1)c1cccnc1 (stereo not given)")
"1 to 10 µM"
>>> experimental_value("O=C(NC[C@@H](O)CN1CCc2ccccc2C1)c1cccc(-c2ccccn2)c1")
"0.101 to 1 µM"
>>> experimental_value("Cn1cc2ccc(-c3cccc(OCC(O)CN4CCc5ccccc5C4)c3)cc2n1 (stereo not given)")
"> 20 µM"

Now, please, on to the next compound.
The compound O=C(COc1cccc2nccnc12)NCC(O)CN1CCc2ccccc2C1 (stereo not given) showed EC50 equal to < 0.1 µM
